test system: SNB-75 CNS; assay: NCI tumour cell line growth inhibition, 48 h
Recorded GI50 for the following compounds

The following compounds have reported results that may help.
Nc1nc(N)c2c(n1)NC(c1ccc(C(F)(F)F)cc1)CC(c1ccc(Nc3nc(NCCO)nc(Nc4ccc(Cl)cc4)n3)cc1)=N2 (centres undefined)
1.7 µM
C[C@]12CC[C@H](O)C[C@@H]1CC[C@@H]1[C@@H]2CC[C@@]2(C)[C@H]1CC[C@@H]2[C@](C)(O)CCc1ccc(F)cc1
4.07 µM
O=C1Nc2cc(OC(F)(F)F)ccc2Oc2ccc(-c3ccnc(N4CC[C@H](O)C4)c3)cc21
< 0.0163 µM

Continue with the next compound.
Tell me GI50 reported for Cc1nn(-c2ccccc2)cc1/C=N/Nc1nc(Nc2ccccc2)nc(Nc2ccc(S(N)(=O)=O)cc2)n1
2.69 µM
